# Tested on: HEK-293T
# assay name: Incucyte cell viability with HEK293T; further: unitless GR value; below 1 slowed growth and below 0 cell loss
# Assay type: toxicity, cell-based
# condition info: human, 24 h, 10 µM, compound concentration 10 uM, replicate number 2, timepoint 24 hours
observation type: Growth Rate
Kindly provide the number alone.

Exercise: // returns reported Growth Rate for input `CCCCCCCCCCCCC/C=C/[C@@H](O)[C@@H](N)COP(=O)(O)O`
Solution: 0.52

Exercise: Ok, now `COc1ncc2cc(C(=O)Nc3cc(C(=O)NCc4cccc(Cl)c4)ccc3Cl)c(=O)[nH]c2n1`
Solution: 0.93

Exercise: Ok, now `CC(C)Oc1ccc(-c2nc(-c3cccc4c3CC[C@@H]4NCCO)no2)cc1C#N`
Solution: -0.29

Exercise: Ok, now `CC(C)Oc1ccc(F)c(-c2cnc(N)c(C(=O)Nc3cnccc3N3CCC[C@@H](C(=O)O)C3)n2)c1`
Solution: 0.33

Exercise: Ok, now `OCCN1CCN(CCCN2c3ccccc3Sc3ccc(Cl)cc32)CC1`
Solution: 0.76
